- target_desc: PAI-1 (Homo sapiens)
- Sequence (P05121 24-402): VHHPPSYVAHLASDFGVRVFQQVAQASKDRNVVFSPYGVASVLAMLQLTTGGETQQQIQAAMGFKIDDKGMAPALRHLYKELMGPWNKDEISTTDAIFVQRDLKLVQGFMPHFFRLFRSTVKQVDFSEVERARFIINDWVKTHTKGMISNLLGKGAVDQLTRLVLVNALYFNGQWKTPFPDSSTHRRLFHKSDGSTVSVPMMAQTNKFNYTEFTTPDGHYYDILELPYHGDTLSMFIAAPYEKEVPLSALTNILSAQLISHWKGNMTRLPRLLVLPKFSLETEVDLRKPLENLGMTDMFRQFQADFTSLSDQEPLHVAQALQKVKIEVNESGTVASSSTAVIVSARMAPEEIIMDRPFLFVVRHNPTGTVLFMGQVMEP
- test: biochemical
- Format: biochemical
- condition_parameters: 20 μm
Where a name gives a salt, the structure may show the parent alone.
readout: % Inhibition (%)
Response body: numeric value in %, unit text excluded.

% Inhibition measured on COc1cc(/C=c2\[nH]c(=O)/c(=C/c3ccc(SCCN(C)C)s3)[nH]c2=O)ccc1OCc1ccc([N+](=O)[O-])cc1 [Compound 5488.HCl] = 60

% Inhibition measured on Cc1ccc(/C=c2\[nH]c(=O)/c(=C/c3ccc(SCCN(C)C)cc3)[nH]c2=O)cc1 [Compound 5463.HCl] = 80

% Inhibition measured on CN(C)CCSc1sc(/C=c2\[nH]c(=O)/c(=C/c3ccccc3)[nH]c2=O)cc1[N+](=O)[O-] [Compound 5403.HCl] = 60

% Inhibition measured on CN(C)CCSc1ccc(/C=c2\[nH]c(=O)/c(=C/c3cccc(Br)c3)[nH]c2=O)cc1 [Compound 5425] = 57
